Record: MIC reported on H. influenzae ATCC49247.
MEASURED_ATTRIBUTE: MIC (µg/mL)

* CC[C@H]1OC(=O)[C@H](C)C(=O)[C@H](C)[C@@H](O[C@@H]2O[C@H](C)C[C@H](N(C)C)[C@H]2O)[C@](C)(OC(=O)OC/C=C/c2cnc3ccccc3c2)C[C@@H](C)C(=O)[C@H](C)[C@H]2NC(=S)O[C@@]21C | 2
* CC[C@H]1OC(=O)[C@H](C)C(=O)[C@H](C)[C@@H](O[C@@H]2O[C@H](C)C[C@H](N(C)C)[C@H]2O)[C@](C)(OC(=O)NC/C=C/c2ccc(-c3cccnn3)cc2)C[C@@H](C)C(=O)[C@H](C)[C@H]2NC(=S)O[C@@]21C | 2
* CC[C@H]1OC(=O)[C@H](C)C(=O)[C@H](C)[C@@H](O[C@@H]2O[C@H](C)C[C@H](N(C)C)[C@H]2O)[C@](C)(OC(=O)OC/C=C/c2ccc(Br)nc2)C[C@@H](C)C(=O)[C@H](C)[C@H]2NC(=S)O[C@@]21C | 2
* CC[C@H]1OC(=O)[C@H](C)C(=O)[C@H](C)[C@@H](O[C@@H]2O[C@H](C)C[C@H](N(C)C)[C@H]2O)[C@](C)(OC(=O)NC/C=C/c2cnc3ccccc3c2)C[C@@H](C)C(=O)[C@H](C)[C@H]2NC(=S)O[C@@]21C | 1

###

Tested on: S. pneumoniae ATCC49619
MEASURED_ATTRIBUTE: MIC (µg/mL)

- CC[C@H]1OC(=O)[C@H](C)C(=O)[C@H](C)[C@@H](O[C@@H]2O[C@H](C)C[C@H](N(C)C)[C@H]2O)[C@](C)(OC(=O)NC/C(F)=C/c2cnc3ccccc3c2)C[C@@H](C)C(=O)[C@H](C)[C@H]2NC(=S)O[C@@]21C: 0.03

###

Record: MIC reported on S. pneumoniae ATCC49619.
MEASURED_ATTRIBUTE: MIC

* CC[C@H]1OC(=O)[C@H](C)C(=O)[C@H](C)[C@@H](O[C@@H]2O[C@H](C)C[C@H](N(C)C)[C@H]2O)[C@](C)(OC(=O)NC/C=C/c2ccc(Br)nc2)C[C@@H](C)C(=O)[C@H](C)[C@H]2NC(=S)O[C@@]21C | ≤ 0.015 µg/mL
* CC[C@H]1OC(=O)[C@H](C)C(=O)[C@H](C)[C@@H](O[C@@H]2O[C@H](C)C[C@H](N(C)C)[C@H]2O)[C@](C)(OC(=O)NC/C=C/c2cnc(C3CC3)nc2)C[C@@H](C)C(=O)[C@H](C)[C@H]2NC(=S)O[C@@]21C | ≤ 0.015 µg/mL
* CC[C@H]1OC(=O)[C@H](C)C(=O)[C@H](C)[C@@H](O[C@@H]2O[C@H](C)C[C@H](N(C)C)[C@H]2O)[C@](C)(OC(=O)NC/C=C/c2ccc(-c3cccnn3)cc2)C[C@@H](C)C(=O)[C@H](C)[C@H]2NC(=S)O[C@@]21C | 0.12 µg/mL
* CC[C@H]1OC(=O)[C@H](C)C(=O)[C@H](C)[C@@H](O[C@@H]2O[C@H](C)C[C@H](N(C)C)[C@H]2O)[C@](C)(OC(=O)NC/C=C/c2cnc3ccccc3c2)C[C@@H](C)C(=O)[C@H](C)[C@H]2NC(=S)O[C@@]21C | ≤ 0.015 µg/mL
